The measured values listed here are drawn from ChEMBL document CHEMBL1201862.

Form field: GI50 (one value per entry).
# Tested on: HOP-92
# protocol: NCI tumour cell line growth inhibition, 48 h
Calls of active or inactive are those of the source. Rule as the data show it: active = GI50 up to about 1.1 µM and inactive = higher.
assay metric: GI50

1) C#CC1(O)c2ccccc2C(=O)c2ccccc21 = 21.6 µM (inactive)
2) Nc1nc2ncc(SCc3ccc(C(=O)NC(CCC(=O)O)C(=O)O)cc3)cc2c(=O)[nH]1 (stereo unspecified) = > 100 µM (inactive)
3) CC(=O)Nc1nc(C)c(S(=O)(=O)NC(=O)NC2NC(=O)NC2=O)s1 (stereo unspecified) = > 100 µM (inactive)
4) CCOC(=O)c1ccc(Nc2cnc3cc(C(F)(F)F)ccc3n2)cc1 = > 100 µM (inactive)
5) COC1(OC)C(/C(N)=C\O)=NC(C)(C)N1O = > 100 µM (inactive)
6) O=C1Nc2ccccc2C12CCNC2Cc1ccccc1 (stereo unspecified) = 76.6 µM (inactive)

====

# System: K562
# protocol: NCI tumour cell line growth inhibition, 48 h
Calls of active or inactive are those of the source. Rule as the data show it: active = GI50 up to about 1.1 µM and inactive = higher.
Outcome codes: active, inactive

1) COC(=O)/C=C1\CCC(C)(C(=O)NS(=O)(=O)c2ccc(C)cc2)C1(C)C (stereo not given) = inactive
2) COc1ccccc1NC(=S)N/N=C(/c1ccccc1)c1ccccn1 = active
3) C=CCOC(=O)C1C2OC3(C(C(=O)OC)=C2C(=O)OC)c2ccccc2CCC13 (stereo not given) = inactive
4) CCOC(=O)c1cc(-c2ccc(OC)cc2)c([N+](=O)[O-])[nH]1 = inactive
5) COc1cc(S(=O)(=O)Nc2ccc(-c3csc(N4C(=O)C(C)SC4c4ccccc4)n3)cc2)ccc1Cl (stereo not given) = inactive

====

# Test system: COLO 205
# protocol: NCI tumour cell line growth inhibition, 48 h
The source made the active and inactive calls. No stated cut-off is given here; in the data, active = GI50 up to about 1.1 µM and inactive = higher.
Outcome codes: true (active), false (inactive)

1) CC(C)C(=O)[C@@]1(C)SC[C@H]2CCN=C21 = false
2) C/C(CC(=O)Nc1cccc(Cl)c1C)=N\NC(=O)c1ccncc1 = false
3) Cc1ccc(S(=O)(=O)N(CC(O)COc2ccccc2)c2c(F)c(F)cc(F)c2F)cc1 (stereo unspecified) = false
4) c1ccc(SC23C4C5C6C4C2C6C53)nc1 (stereo unspecified) = false
5) O=C(Nc1cnc(O)nc1O)C(Cl)Cl = false
6) CN(C=O)/C=C/c1cc(O)ccc1O = false
7) COC(NC(=O)Nc1ccccc1C)(C(F)(F)F)C(F)(F)F = false
8) Clc1cccc(Cl)c1/C=N/C12CC3CC(CC(C3)C1)C2 = false
9) O=S(=O)(c1ccccc1)[C@@H]1[C@H]2C=C[C@](CS)(O2)[C@H]1S(=O)(=O)c1ccccc1 = false
10) CCC/C(=N\NC(=S)N1CCN(c2ccccn2)CC1)c1ccccn1 = true
11) O=c1nc2ccc3sc4ccccc4c(=O)c3n2c(=O)[nH]1 = false

====

# Test system: SNB-19
# protocol: NCI tumour cell line growth inhibition, 48 h
Calls of active or inactive are those of the source. Cut-off read from the data, not from the text of the source: active = GI50 up to about 1.1 µM and inactive = higher.
assay metric: GI50

1) Cc1ccsc1/C=N/Nc1ncccn1 = > 100 µM (inactive)
2) C[N+]1=C2[B-](C(C)(C)C)=[N+](C(C)(C)C)[B-]2(C(C)(C)C)[N+](C)=C2[B-](C(C)(C)C)=[N+](C(C)(C)C)[B-]21C(C)(C)C (stereo unspecified) = > 100 µM (inactive)
3) C=CCOC(OCC=C)/C(Br)=C/C = > 100 µM (inactive)
4) O=[N+]([O-])/C(Cl)=C(\NCCO)C(Cl)=C(Cl)Cl = > 100 µM (inactive)
5) CCc1cccc(C)c1NC(=O)C(=O)Cc1nc2ccccc2o1 = > 100 µM (inactive)
6) COC(=O)C1CCCCCCCCCCC12SCCCS2 (stereo unspecified) = 18.2 µM (inactive)
7) NC1CCC[C@@H](O)[C@H]1O (stereo partly specified) = > 100 µM (inactive)
8) O=S(=O)(O)c1ccc(/N=N\c2c(O)ccc3cc(Br)ccc23)cc1 = > 100 µM (inactive)
9) COc1ccc(/N=C(Nc2ccc(OC)cc2)/C(=N/c2ccc(OC)cc2)Nc2ccc(OC)cc2)cc1 = > 100 µM (inactive)
10) C=C1C(=O)OC2CC(C)C3CC(O)OC(OCC)C3(C)CC12 (stereo unspecified) = 26 µM (inactive)
11) O=c1nc2ccc3sc4ccccc4c(=O)c3n2c(=O)[nH]1 = > 100 µM (inactive)
